Target: T1, His-human LIGHT (human)
T1 construct: also called His-huLIGHT; free LIGHT
T1 chain: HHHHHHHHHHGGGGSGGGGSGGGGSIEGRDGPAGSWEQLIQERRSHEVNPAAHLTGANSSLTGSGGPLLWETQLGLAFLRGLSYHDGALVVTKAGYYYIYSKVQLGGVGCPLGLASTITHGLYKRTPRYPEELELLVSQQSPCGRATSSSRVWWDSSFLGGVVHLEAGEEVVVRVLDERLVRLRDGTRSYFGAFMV
Experiment: ELISA, His-huLIGHT coated
Under this convention, met denotes EC50 strictly below 0.03 µg/mL and not met denotes EC50 at or above 0.03 µg/mL.

Could you please tell me whether EC50 recorded for LT-m31 (antibody, human IgG4, V domains shown) VH: QIQLLQSGPELEKPGETVKISCKASGYTFTNYGMNWVKQAPGKGLKWMGWINTYTGEPTYADDFKGRFAFSLETSASTAYLQINNLKNEDTATYFCARDNWDGKGMDYWGQGTSVTVSS VL: DIVLTQSPKFMSTSVGDRVSITCKASQDVDTAVAWYQQKPGHSPKLLLYWASTRHTGVPDRFTGSGSGTDFTLTISNVQSEDLADYFCHQYGSYPLTFGAGTKLELK is less than 0.03 µg/mL?
met

Could you please tell me whether EC50 recorded for LT-m37 (antibody, human IgG4, V domains shown) VH: QVQLKQSGAELVRPGTSVKVSCKASGYSFTGYFINWVKQSHGKSLEWIGRIYPYNVNTFYNQNFKGRATLTADKSSSTAHMELLSLTSEDSAVYYCGRGTHYYGSSGAMDYWGQGTSVTVSS VL: DILLTQSHKFMSTSVGDRVSITCKASQNVGTAVAWYQQKPGQSPKLLIYSASNRYTGVPDRFTGSGSGTDFTLTISNMQSEDLADYFCQQYSSYPYTFGGGTKLEIK is less than 0.03 µg/mL?
not met

Could you please tell me whether EC50 recorded for LT-m64 (antibody, human IgG4, V domains shown) VH: EVKLEESGAELVKPGASVRLSCKTSGYTFTNYYVYWVKQRPGQGLEWIGEINPTNGDPNFNEKFKSKATLTVDKSSSTAYMHLSSLTSEDSAVYYCTRSNWDYGNAMDFWGQGTSVTVSS VL: DIVMTQSPASLAVSLGQRATISCKASQSVDFDGDGYMNWYQQKPGQPPKLLIYKASHLDSGIPARFSASGSGTDFTLNIHPVEEEDAATYYCQQSIEDPFTFGSGTKLEIK is less than 0.03 µg/mL?
met

Could you please tell me whether EC50 recorded for LT-m33 (antibody, human IgG4, V domains shown) VH: QVQLKQSGAELVKPGASVRLSCKTSGYTFTNYYVYWVKQRPGQGLEWIGEINPTNGDPNFNEKFKSKATLTVDKSSSTAYMHLSSLTSEDSAVYYCTRSNWDYGNAMDFWGQGTSVTVSS VL: DIVMTQSPASLAVSLGQRATISCKASQSVDFDGDGYMNWYQQKPGQPPKLLIYKASHLDSGIPARFSGSGSGTDFTLNIHPVEEEDAATYYCQQSIEDPLTFGDGTRLEIK is less than 0.03 µg/mL?
met

Could you please tell me whether EC50 recorded for LT-m17 (antibody, human IgG4, V domains shown) VH: QVQLQQSGPELVKPGASVKISCKASGYSFTGYFMNWVKQSHGKSLEWIGRIYPYSGDTFYNQKFNNKATLTVDKSSSTAHLELLSLTSEDSAVYYCGRSEHFGRNYGTGAVDYWGQGTSVTVSS VL: DVVMTQTPLSLPVSLGDQASISCRSSQGLVHSNGNTYLHWYLQKPGQSPKLLIYKVSNRFSGVPDRFSGSGSGTDFTLKISRVEAEDLGIYFCSQSTHVPYTFGGGTKLEIK is less than 0.03 µg/mL?
not met

Could you please tell me whether EC50 recorded for LT-m58 (antibody, human IgG4, V domains shown) VH: QVQLQQSGAEMASPGASVTLSCKASGYTFIDHIMNWVKKRPGQGLEWIGRIYPVSGETNYNQKFMGKATFSVDRSSSTVYMVLNSLTSEDPAVYYCGRGSYYWNAMDYWGQGTTLTVSS VL: DIVMTQSPASLAVSLGQRATISCKASQSVDFDGDSYMNWYQQKPGQPPKLLIYSASNLESGIPARFSGSGSGTDFTLNIHPVEEEDAATYYCQQSIEDPWTFGGGTKLEIK is less than 0.03 µg/mL?
met

The measured values listed here are drawn from patent EP4596580A1.
